System: NCI-H23 lung
Assay: NCI tumour cell line growth inhibition, 48 h
recorded-endpoint: TGI

Hi there! I need TGI for each item below, if you can.
1. Cc1ccc(Nc2nnc3n2S(=O)(=O)c2cc(C)c(Cl)cc2S3)cc1
2. Clc1ncc(C(Cl)(Cl)Cl)nc1-c1ccccc1
3. COc1ccc(S(=O)(=O)Nc2ccc(-c3csc(N4C(=O)/C(=C/C=C\c5ccccc5)N=C4c4ccccc4)n3)cc2)cc1Cl

Output:
1. 48.3 µM
2. 6.07 µM
3. 42.4 µM

====

System: BT-549 breast
Assay: NCI tumour cell line growth inhibition, 48 h
recorded-endpoint: GI50

{"molecule": "CCNC(=O)Oc1ccc(/C(=C(\\C)c2ccc(Cl)cc2)c2ccc(OCCN3CCCCC3)cc2)cc1", "GI50": "4.27 µM"}
{"molecule": "C=C(CC1(CC(=C)c2ccc(C(=O)O)cc2)C(=O)N(C)C(=O)N(C)C1=O)c1ccc(C(=O)O)cc1", "GI50": "> 100 µM"}
{"molecule": "O=[N+]([O-])O.[NH-]C1CCCCC1[NH-].[NH-]C1CCCCC1[NH-].[NH-]C1CCCCC1[NH-].[OH-].[OH-].[OH-].[Pt+4].[Pt+4].[Pt+4] (centres undefined)", "GI50": "3.02 µM"}

Here is the next item to consider.
Input: Using the record for COc1ccc(S(=O)(=O)NCCNc2nccc(-c3c(-c4ccccc4)nc4sccn34)n2)cc1 , report its GI50.
Output: 3.56 µM

====

Test system: NCI-H522 lung
Assay: NCI tumour cell line growth inhibition, 48 h
recorded-endpoint: TGI

Please review the entries below; each comes with its answer.
{"compound": "COc1cc(/C=C2\\C[C@H]3[C@@H]4CC=C5C[C@@H](N6CCCC6)CC[C@]5(C)[C@H]4CC[C@]3(C)[C@H]2OC(C)=O)cc(OC)c1OC", "TGI": "30.4 µM"}
{"compound": "Cc1ccc(OCCCCCCNCCO)c(C)c1", "TGI": "30.1 µM"}
{"compound": "CC(C)(C)NCCC(O)c1cc(C(F)(F)F)nc2c(C(F)(F)F)cccc12 (stereo not given)", "TGI": "25.1 µM"}
{"compound": "C=CCOn1c(C=C)nc2c(C)cccc21", "TGI": "4.87 µM"}

Input: So what's the measured TGI for this one? COc1ncnc2c(-c3ccco3)cn(COCc3ccccc3)c12
Output: > 50 µM

====

Tested on: EKVX NSCLC
Test: NCI tumour cell line growth inhibition, 48 h
Where a SMILES comes first, the peptide text is derived from it. The star is where a group is joined. Palmitoyl = CCCCCCCCCCCCCCCC(=O)*
recorded-endpoint: GI50

Example entries and their recorded answers appear below.
{"molecule": "CC1SC2(CCCCC2)N(NC(=O)c2[nH]c3ccc(F)cc3c2-c2ccccc2)C1=O (stereo not drawn)", "recorded-endpoint": "GI50", "result": "> 100 µM"}
{"molecule": "CCNC(=O)Oc1ccc(/C(=C(\\C)c2ccc(Cl)cc2)c2ccc(OCCN3CCCCC3)cc2)cc1", "recorded-endpoint": "GI50", "result": "6.14 µM"}
{"molecule": "O=[N+]([O-])O.[NH-]C1CCCCC1[NH-].[NH-]C1CCCCC1[NH-].[NH-]C1CCCCC1[NH-].[OH-].[OH-].[OH-].[Pt+4].[Pt+4].[Pt+4] (stereo not drawn)", "recorded-endpoint": "GI50", "result": "30.1 µM"}
{"molecule": "O=c1c2cc(F)ccc2sc2c(NCCCN3CCCC3)nc3ccccc3c12", "recorded-endpoint": "GI50", "result": "2.58 µM"}
{"molecule": "CCC1(N2C(=O)c3c(F)c(F)c(F)c(F)c3C2=O)C(=O)NC(=O)N(c2ccccc2)C1=O (stereo not drawn)", "recorded-endpoint": "GI50", "result": "2.77 µM"}
{"molecule": "O=[N+]([O-])c1cccc(-c2ncc(-c3ccc(Cl)cc3Cl)[nH]2)c1", "recorded-endpoint": "GI50", "result": "2.15 µM"}

Here are 7 molecules. What values of GI50 were reported for them?
1. C#Cc1cccc(Nc2ncnc3ccc(-c4cncc(NS(C)(=O)=O)c4)cc23)c1
2. COc1ccc(CC2C(=O)NC(C)C(=O)N(C)C3Cc4ccc(cc4)Oc4cc(ccc4O)CC(C(=O)NC(C)C(=O)NC(C)C(=O)N2C)N(C)C3=O)cc1 (stereo not drawn)
3. N#Cc1ccc(N2Cc3cc(Cl)ccc3OC3=C2C(=O)N(Cc2ccccc2)C3=O)cc1
4. COC(=O)C1=C(O)C(C(=O)OC)[C@@]2(O)[C@@H](C(=O)OC)C(c3ccc(OC(=O)C(CC(C)C)NC(C)=O)cc3)C[C@@H]1[C@@H]2C(=O)OC (stereo partly drawn)
5. CC(=O)N[C@@H]1CCC[C@H](C(=O)Nc2cc(-c3cnn4c3CC(C)(C)C4)c(Cl)cn2)C1
6. C[C@H](NC(=O)CCC(F)(F)F)C(=O)N[C@@H]1C(=O)N(CCO)c2ncccc2-c2ccccc21
7. Nc1ccc2c(c1)CN1C(=O)c3ccccc3C1=N2

Output:
1: 1.12 µM; 2: 0.00125 µM; 3: 2.02 µM; 4: 39.7 µM; 5: 0.0197 µM; 6: > 100 µM; 7: 72.2 µM

Parameters: items (list). Returns: GI50 for each item.
1. CC(=O)Nc1ccc(-n2cnc3cc(-c4ccc(OCCN5CCCCC5)cc4)ccc32)cc1
2. Cn1c(COC(=O)NCCN2CCOCC2)nc2c(N3CCOCC3)nc(-c3ccccc3)nc21
3. CCCCCCCCCCCCCCCC(=O)NC(CCCCN)C(=O)NCC(=O)NC(Cc1ccccc1)C(=O)N1CCCC1C(=O)NC(CO)C(=O)NC(Cc1ccc(O)cc1)C(=O)NC(CCCCN)C(=O)NC(CC(C)C)C(=O)NC(CCCN=C(N)N)C(=O)N1CCCC1C(=O)NCC(N)=O (stereo not drawn) (Palmitoyl-KGFPSYKLRPG-NH2; configuration not given here)
4. COc1cc(C(=O)N/N=C/c2cccc([N+](=O)[O-])c2)cc(OC)c1OC
5. O=C(CN=Cc1cccs1)CSC(c1ccccc1)c1ccccc1

Output:
["7.88 µM", "1.48 µM", "18.8 µM", "18.7 µM", "26.2 µM"]
